test system: SK-OV-3 ovarian; test: NCI-60 one-dose screen, 48 h (100 = growth as untreated, 0 = no growth, -100 = all killed); details: 10 µM
About 83,000 compounds went through this panel and 20% of them were active in at least one assay; those are over-represented in the sample as a whole. Active and inactive are the calls of the source. The calls were made as follows: active = growth percent below 10; inactive = the rest.
REPORTED_ENDPOINT: growth

COMPOUND	REPORTED_ENDPOINT	RESULT
S=C(SSC(=S)N(c1ccccc1)c1ccccc1)N(c1ccccc1)c1ccccc1	growth	100% (inactive)
Cc1cc(=O)n2nnc3cc(Cl)c(Cl)cc3n12	growth	85.2% (inactive)
CCCCCCCCCCCCCCCCCC[n+]1ccc2c(C)c3c(c(C)c2c1)c1cc(O)ccc1n3CC	growth	22.2% (inactive)
COc1ccc(-c2nn(-c3cccc(Cl)c3)cc2-c2cc(-c3cccs3)[nH]c(=S)n2)cc1	growth	83% (inactive)
Nc1cc(-c2ccncc2)c[nH]c1=O	growth	120% (inactive)
Clc1ccc(C2=NN=C3C(Cc4ccccc4)=Nc4ccccc4N3C2)cc1	growth	112% (inactive)
O=[N+]([O-])c1cc(Cl)cc(Cl)c1O	growth	91.3% (inactive)
COc1ccc(-c2cc(-c3cc(OC)ccc3OC)nc(N)c2C#N)cc1	growth	62.9% (inactive)
N#CCc1csc(Cc2ccccc2)n1	growth	104% (inactive)
CC(=O)N[C@H](C(=O)N[C@@H](CCCNC(=N)N)C(=O)N[C@@H](CCCCN)C(=O)N[C@@H](CCCNC(=N)N)C(=O)NC(C(=O)N[C@@H](CC(C)C)C(=O)N[C@@H](CCCNC(=N)N)C(=O)N[C@@]1(C)CCC/C=C\CCC[C@@](C)(C(=O)N[C@@H](CCCNC(=N)N)C(=O)N[C@@H](CCC(=O)O)C(=O)N[C@@H](CC(C)C)C(=O)N[C@H](C(=O)N[C@@H](CCC(=O)O)C(N)=O)C(C)C)NC(=O)[C@H](CCC(N)=O)NC(=O)[C@H](CC(C)C)NC(=O)[C@H](CC(C)C)NC1=O)[C@@H](C)O)C(C)C (stereo partly drawn)	growth	53.3% (inactive)
COc1ccc(Cc2cnc(N)nc2N)cc1OC	growth	96% (inactive)
CSc1nc2c(c(=O)n1C)CN(Cc1ccccc1)C(=O)CN2	growth	99% (inactive)
CCN(CC)CCOC(=O)c1cc(OCc2ccccc2)c(OCc2ccccc2)c(OCc2ccccc2)c1	growth	100% (inactive)
COc1cc(C2CC(c3cc(Cl)c(C)cc3O)=NN2c2ccc(S(N)(=O)=O)cc2)cc(OC)c1OC (stereo not drawn)	growth	14.5% (inactive)
COC(=O)c1c[nH]c2cc(OC(C)C)c(OC(C)C)cc2c1=O	growth	55.2% (inactive)
COc1cc2cc(Oc3ccc(NC(=O)c4ccccc4)cc3)c(C)nc2cc1OC	growth	73.4% (inactive)
Cc1c2c[n+](C(C)C)ccc2c(C)c2c1[nH]c1ccccc12	growth	-1.05% (active)
O=C1/C=C/[C@@H](O)[C@@H]2C[C@@H](O)C[C@H]2/C=C/CCC[C@H](C(F)(F)F)O1	growth	57.8% (inactive)
